Exercise: state measured growth inhibition for each of the compounds provided.
assay: NCI Yeast Anticancer Drug Screen. Data for the rad50 strain (AID 155);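 further: 0% = growth of vehicle-only cultures of the same strain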; conditions: S. cerevisiae rad50 strain growth inhibition; at 50.0 µM; hits give high values
Compounds without any hit were thinned out: in the full panel of roughly 79,000, 15% have a hit.
Enter your answer as a number in %; do not include the unit.

Exercise: Please indicate growth inhibition recorded for CC1=CC(=O)/C(=C/n2c(=S)[nH]c3ccc([N+](=O)[O-])cc32)C(=O)O1
Solution: 2.1

Exercise: Please indicate growth inhibition recorded for Cc1cc2c(C#N)c3ccccc3c(=O)n2c2ccccc12
Solution: -0.95

Exercise: Please indicate growth inhibition recorded for CCN(C)c1ccccc1
Solution: -5.8

Exercise: Please indicate growth inhibition recorded for CC1(C=O)CCCC2(C)[C@@H]1CCC13CC(CO)C(CC[C@H]12)C3 (stereo partly specified)
Solution: 19.4

Exercise: Please indicate growth inhibition recorded for O=C1CC2(CCCC2)C(=O)N1c1cccc([N+](=O)[O-])c1
Solution: 10.8

Exercise: Please indicate growth inhibition recorded for O/N=C1/CCCCC1NO (stereo unspecified)
Solution: -17.9

Exercise: Please indicate growth inhibition recorded for CCC(c1ccc(OC)cc1)c1cc2c(cc1OCCO)OCO2 (stereo unspecified)
Solution: 70.9

Exercise: Please indicate growth inhibition recorded for Cc1ccc2[nH]c(=S)n(CCc3ccccc3)c(=O)c2c1
Solution: -1.95

Exercise: Please indicate growth inhibition recorded for Cc1ncc([N+](=O)[O-])n1CCNC(=O)CCCCCn1ccnc1[N+](=O)[O-]
Solution: 3.1

Exercise: Please indicate growth inhibition recorded for CNCCCc1cc(-c2ccc([N+](=O)[O-])cc2)n[nH]1
Solution: -1.55

Exercise: Please indicate growth inhibition recorded for CCC(C)(O)CCC(C)(O)CC (stereo unspecified)
Solution: 27.6

Exercise: Please indicate growth inhibition recorded for O=C(O)CCCCc1ccc2ccccc2c1
Solution: 4

Exercise: Please indicate growth inhibition recorded for S=c1ccc2ccccc2[nH]1
Solution: -16.9

Exercise: Please indicate growth inhibition recorded for CN(C)c1ccccc1C(=O)N/N=C\c1ccc(O)c(O)c1
Solution: 17.6

Exercise: Please indicate growth inhibition recorded for CC1=NOC(C)(O)/C1=N/O (stereo unspecified)
Solution: 6.8

Exercise: Please indicate growth inhibition recorded for O=C1O/C(=C2/OC(=O)c3ccccc32)c2ccccc21
Solution: -8.05

Exercise: Please indicate growth inhibition recorded for N#Cc1nn(CCCl)c(=O)c2ccccc12
Solution: 28.7

Exercise: Please indicate growth inhibition recorded for CSc1ccc(NC(=O)Nc2ccc(Nc3ccccc3)cc2)cc1
Solution: -0.95

Exercise: Please indicate growth inhibition recorded for CCOC(=O)/C(=C\c1ccccc1Cl)C(C)=O
Solution: 99.3

Exercise: Please indicate growth inhibition recorded for COc1cccc(-c2nc3ccccc3c(=O)[nH]2)c1OC
Solution: 33.2

Exercise: Please indicate growth inhibition recorded for C[N+](C)(C)N=C1CCCCC1
Solution: 10.9

Exercise: Please indicate growth inhibition recorded for O=C1CC2C3CC4(OCCO4)C4C3CC2C14 (stereo unspecified)
Solution: 8.25

Exercise: Please indicate growth inhibition recorded for CC1C[C@]2(C)C(=NCCN)Nc3ccccc3[C@@H]2N(C)c2ccccc21 (stereo partly specified)
Solution: -14.4

Exercise: Please indicate growth inhibition recorded for O=S(=O)(O)c1ccc(N/N=C/c2ccccc2)cc1
Solution: -9.45

Exercise: Please indicate growth inhibition recorded for Cc1cc(OCc2ccc3ccccc3c2)ccc1Nc1cc(=O)[nH]c(=O)[nH]1
Solution: 3.65

Exercise: Please indicate growth inhibition recorded for COc1ccc(C=Nc2ccc(C(=O)O)cc2)cc1
Solution: 0.5

---

Exercise: state measured growth inhibition for each of the compounds provided.
assay: NCI Yeast Anticancer Drug Screen. Data for the mec2-1 strain (AID 157); details: S. cerevisiae mec2-1 strain, at 50.0 µM, hits give high values
About 79,000 compounds went through this panel and 15% of them were active in at least one assay; those are over-represented in the sample as a whole.
Enter your answer as a number in %; do not include the unit.

Exercise: Please indicate growth inhibition recorded for Cn1c(N)c2c(=O)n(C)c3c(c2c(C#N)c1=O)CCSc1ccccc1-3
Solution: -6.35

Exercise: Please indicate growth inhibition recorded for CCCCCOC(=S)S.[Ag]
Solution: -15.2

Exercise: Please indicate growth inhibition recorded for CC(=O)c1ccc(N=C2C(=O)Nc3ccccc32)cc1
Solution: 15.8

Exercise: Please indicate growth inhibition recorded for CN(C)c1ccc(/C=C(\C#N)c2ccccc2Br)cc1
Solution: -10.5

Exercise: Please indicate growth inhibition recorded for CCOC(=O)NC(N)=O
Solution: -1.45

Exercise: Please indicate growth inhibition recorded for CCCC(=O)Nc1cccc(Cl)c1
Solution: 9.05

Exercise: Please indicate growth inhibition recorded for COP(=O)(CC(=O)C1OC(C)(C)OC1C(O)COCc1ccccc1)OC (stereo not drawn)
Solution: 22.9

Exercise: Please indicate growth inhibition recorded for Cc1cc2ccccc2c2cc3ccccc3cc12
Solution: -6.4

Exercise: Please indicate growth inhibition recorded for COC(=O)C(=O)C(/C=N/C(=S)Nc1ccc(S(=O)(=O)Nc2nccs2)cc1)=C(\O)c1c(C)[nH]c2ccccc12
Solution: 23.8

Exercise: Please indicate growth inhibition recorded for CC(Cl)C(O)C#N (stereo not drawn)
Solution: -3.35

Exercise: Please indicate growth inhibition recorded for c1ccc(N/N=C2/CSCc3ccccc32)cc1
Solution: 68.8

Exercise: Please indicate growth inhibition recorded for COC(=O)c1ccc(OC(=O)Nc2ccc(Br)cc2)cc1
Solution: 26.4

Exercise: Please indicate growth inhibition recorded for NC(=O)Nc1ccc2[nH]c(=O)c3ccccc3c2c1
Solution: -3.35

Exercise: Please indicate growth inhibition recorded for ClC(Cl)(Cl)C(N1CCN(c2ccccc2)CC1)N1CCN(c2ccccc2)CC1
Solution: -34

Exercise: Please indicate growth inhibition recorded for C1=C(c2ccccc2)CCCC1
Solution: 3.55

Exercise: Please indicate growth inhibition recorded for CC(=O)OCC1OC(n2ccc(=O)[nH]c2=O)CC1N=[N+]=[N-] (stereo not drawn)
Solution: 8.7

Exercise: Please indicate growth inhibition recorded for O=C(O)CNC(=S)SCc1ccccc1
Solution: -11.9

Exercise: Please indicate growth inhibition recorded for Cc1ccc(N=Cc2cc(Br)ccc2O)cc1Cl
Solution: 99

Exercise: Please indicate growth inhibition recorded for O=C1C2=C(Nc3cc(Cl)ccc3N2)OC1c1c[nH]c2ccc(COc3ccccc3)cc12 (stereo not drawn)
Solution: 6.6

Exercise: Please indicate growth inhibition recorded for O=c1cc(-c2cccs2)ss1
Solution: 5.25

Exercise: Please indicate growth inhibition recorded for O=C(NC(=S)Nc1ccc2ccccc2c1)c1ccc(Cl)cc1Cl
Solution: 1.2

Exercise: Please indicate growth inhibition recorded for Cc1onc(-c2c(F)cccc2Cl)c1-c1ncc(-c2ccc(Cl)cc2)o1
Solution: 3.3

Exercise: Please indicate growth inhibition recorded for NC(=O)N1CCCC1
Solution: 13.1

---

assay: NCI Yeast Anticancer Drug Screen. Data for the bub3 strain (AID 167); conditions: S. cerevisiae bub3 mutant strain, at 50.0 µM, hits give high values
Compounds without any hit were thinned out: in the full panel of roughly 79,000, 15% have a hit. Active and inactive are the calls of the source. Rule as the data show it: active = growth inhibition above about 70%; inactive = the rest.
Exercise: state measured growth inhibition for each of the molecules provided.

Exercise: Please indicate growth inhibition recorded for COc1cc(C(O)C2(c3ccc(O)c(OC)c3)NC(=O)NC2=O)ccc1O (stereo unspecified)
Solution: 35.2% (inactive)

Exercise: Please indicate growth inhibition recorded for Cc1c(C)c2cc3ccc(Cl)cc3nc2c2ccccc12
Solution: 2.9% (inactive)

Exercise: Please indicate growth inhibition recorded for Cc1ncc(Cl)c2cc3ccccc3cc12
Solution: -3.25% (inactive)

Exercise: Please indicate growth inhibition recorded for CS(=O)(=O)OCCCCCCCCCOS(C)(=O)=O
Solution: -18.8% (inactive)

Exercise: Please indicate growth inhibition recorded for COC1OC(COC(c2ccccc2)(c2ccccc2)c2ccccc2)C2SC12 (stereo unspecified)
Solution: 4.8% (inactive)

Exercise: Please indicate growth inhibition recorded for CC(C)N(CCCCO)C(C)C
Solution: 2.7% (inactive)

---

Test: NCI Yeast Anticancer Drug Screen. Data for the bub3 strain (AID 167)
Details: S. cerevisiae bub3 mutant strain, at 50.0 µM, hits give high values
Procedure: Growth inhibition of yeast strains with defined genetic alterations is measured as a screen for potential anti-cancer activity. Selected strains with alterations in DNA damage repair or cell cycle control were exposed to compounds and growth inhibition was measured relative to vehicle treated controls. The strain used in this assay is bub3
This is part of a sample that, as a whole, favours compounds with a hit. Of some 79,000 tested, about 15% had one in any assay.
measured_quantity: growth inhibition (%)
Enter your answer as a number in %; do not include the unit.

Exercise: Please indicate growth inhibition recorded for CSc1sc2ccc(S(=O)(=O)O)cc2[n+]1C
Solution: -1.85

Exercise: Please indicate growth inhibition recorded for CC1/C(=N/Nc2ccc([N+](=O)[O-])cc2)CC2C3(C)CCC2(C(C)C(=O)O)C(=O)C13 (configuration not stated)
Solution: 44.8

Exercise: Please indicate growth inhibition recorded for O=c1c2cccnc2[nH]c2ccc3[nH]ncc3c12
Solution: -30.9

Exercise: Please indicate growth inhibition recorded for C(=N\NC1=NCCCCN1)/c1ccc2ccccc2c1
Solution: -2.35

Exercise: Please indicate growth inhibition recorded for O=[N+]([O-])c1ccc(NC2CCCCC2)nc1
Solution: 42.6

Exercise: Please indicate growth inhibition recorded for CC1CCCN(C(=O)Nc2ccccc2)C1 (configuration not stated)
Solution: 4.65

Exercise: Please indicate growth inhibition recorded for O=[N+]([O-])c1cccc(N=Cc2ccccc2)c1
Solution: 13.8

Exercise: Please indicate growth inhibition recorded for CCOC(=O)NC(NC(=O)OCC)c1ccc(C(NC(=O)OCC)NC(=O)OCC)cc1
Solution: 2.8

Exercise: Please indicate growth inhibition recorded for CC1=NN(c2ccccc2)C(=O)C1=C1SCCCS1
Solution: -4.9

Exercise: Please indicate growth inhibition recorded for CCN(CC)CCC(CCN(CC)CC)(COC(=O)c1ccc([N+](=O)[O-])cc1)c1ccccc1
Solution: -0.55

Exercise: Please indicate growth inhibition recorded for CCOC(=O)N/N=C(\Cc1ccccc1)OCC
Solution: 14.6

Exercise: Please indicate growth inhibition recorded for C[N+](C)(C)CCC(=O)N1C/C(=C\c2ccccc2)C(=O)/C(=C/c2ccccc2)C1
Solution: -15.7
